- PROTOCOL_NOTES: HCT116 colon cancer cell growth inhibition, primary screen, CellTiter-Glo luminescence, NPC library (AID 1117342)
- CONDITION_LABEL: at 20 µM (top of the series)
One threshold, 30%, splits the recorded inhibition of viability values: lower ones are 1 (yes), equal or higher ones are 0 (no).

Worked examples follow.
>  <COMPOUND>
O=S(c1cc(Cl)cc(Cl)c1O)c1cc(Cl)cc(Cl)c1O

>  <CLASS>
0 (no)

$$$$
>  <COMPOUND>
O=C(C1CCCCC1)N1CC(=O)N2CCc3ccccc3C2C1 (stereo not drawn)

>  <CLASS>
1 (yes)

$$$$
>  <COMPOUND>
Cc1ccc(O)c([C@H](CCN(C(C)C)C(C)C)c2ccccc2)c1

>  <CLASS>
0 (no)

$$$$
>  <COMPOUND>
CN(C)[C@@H]1C(=O)C(C(N)=O)=C(O)[C@@]2(O)C(=O)C3=C(O)c4c(O)cccc4C[C@H]3C[C@@H]12

>  <CLASS>
0 (no)

$$$$
>  <COMPOUND>
CC(C)CCC[C@@H](C)[C@H]1CC[C@H]2[C@@H]3CC[C@H]4C[C@@H](O)CC[C@]4(C)[C@@H]3CC[C@]12C

>  <CLASS>
1 (yes)

$$$$

Does this compound meet the criterion inhibition of viability < 30%? CC1=NS(=O)(=O)c2cc(Cl)ccc2N1
1 (yes)

Does this compound meet the criterion inhibition of viability < 30%? O[C@@H](c1cc(C(F)(F)F)nc2c(C(F)(F)F)cccc12)[C@H]1CCCCN1
0 (no)

Does this compound meet the criterion inhibition of viability < 30%? CC(=O)CC/C=C(\C)CC/C=C(\C)CC/C=C(\C)CCC=C(C)C
1 (yes)
